test.details: chemical genetic growth profiling, strain panel (AID 1159580);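 note: tested at 20 µM; growth read once vehicle control cultures reached saturation at 30 °C; 1 = growth at the plate median or of vehicle wells; lower values mean less growth of the strain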
experimental.conditions: S. cerevisiae deletion strains, growth OD, locus YJL115W, strain asf1, hits give low values
Screen size: about 5,500 compounds; about 2,000 (36%) were called active. About 18% were inconclusive and are not listed. This is one part of the list.
Could you mark each record label 1 if its normalized growth falls strictly under 1, and label 0 if it equals or exceeds it?

CN[C@H]1CC[C@@H](c2ccc(Cl)c(Cl)c2)c2ccccc21	label 0

We now examine a further molecule.
query: Determine whether this molecule shows normalized growth lower than 1 (ties excluded): COC(=O)NC(=S)Nc1ccccc1NC(=S)NC(=O)OC
result: label 1

* * *

test.details: chemical genetic growth profiling, strain panel (AID 1159580);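 note: tested at 20 µM; growth read once vehicle control cultures reached saturation at 30 °C; 1 = growth at the plate median or of vehicle wells; lower values mean less growth of the strain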
experimental.conditions: S. cerevisiae deletion strains, growth OD, locus YOR083W, strain WHI5, hits give low values
The campaign covered roughly 5,500 compounds. About 2,000 (36%) were called active. Another 18% or so got no clear call; they are omitted. The list shows a part of the results.
readout: normalized growth
The answer should be written as a number, with no unit following it.

Below, each entry is followed by its recorded normalized growth result.
C[C@@H]1CC[C@@]23CCC4(C)[C@@](C=CC5[C@@]6(C)CCC(=O)C(C)(C)C6CC[C@]54C)(OC2=O)C3[C@H]1C (stereo partly drawn)	1.01
CC(=O)OCC(=O)[C@@]1(O)CCC2C3C[C@H](C)C4=CC(=O)C=CC4(C)C3[C@@H](O)CC21C (stereo partly drawn)	1.02
COc1ccc(-c2cc(=O)c3c(O)cc(O)cc3o2)cc1	0.917
COc1ccc(-c2cc(=O)c3c(O)c(OC)c(OC)c(OC)c3o2)cc1OC	0.991
COc1ccc(-c2cc(=O)c3c(O)c(OC)c(O[C@H]4O[C@H](CO[C@@H]5O[C@@H](C)[C@H](O)[C@@H](O)[C@H]5O)[C@@H](O)[C@H](O)[C@H]4O)cc3o2)cc1	0.998
Cc1c(OCC(F)(F)F)ccnc1CS(=O)c1nc2ccccc2[nH]1 (stereo not drawn)	1.01
COc1ccc(-c2cc(=O)c3c(OC)c(OC)c(OC)c(OC)c3o2)cc1OC	1

query: # query: normalized growth of entry CC1(C)C(=O)CC[C@@]2(C)C1C[C@@H](O)[C@@]1(C)C3=CC(=O)O[C@@H](c4ccoc4)[C@]3(C)CCC21 (stereo partly drawn)
result: 1.02

* * *

test.details: chemical genetic growth profiling, strain panel (AID 1159580);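 note: tested at 20 µM; growth read once vehicle control cultures reached saturation at 30 °C; 1 = growth at the plate median or of vehicle wells; lower values mean less growth of the strain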
experimental.conditions: S. cerevisiae deletion strains, growth OD, locus YNL067W, strain RPL9B, hits give low values
Out of some 5,500 compounds screened, about 2,000 (36%) were called active. Roughly 18% stayed inconclusive and do not appear here. The list shows a part of the results.
// values below are reported normalized growth

Example cases with answers are listed next.
C[C@]12CCC3C(CC[C@]4(O)C[C@@H](O)CC[C@]34C=O)[C@@]1(O)CCC2C1=CC(=O)OC1 (some centres undefined)	1.01 (inactive)
C[C@H]1O[C@@H](O[C@H]2[C@@H](O)C[C@H](O[C@H]3[C@@H](O)C[C@H](O[C@H]4CC[C@]5(C)C6C[C@@H](O)[C@]7(C)[C@@H](C8=CC(=O)OC8)CC[C@]7(O)C6CC[C@@H]5C4)O[C@@H]3C)O[C@@H]2C)C[C@H](O)[C@@H]1O (some centres undefined)	1.03 (inactive)
COc1ccccc1N1CCN(CCCNc2cc(=O)n(C)c(=O)n2C)CC1	0.977 (inactive)
CC1(C)S[C@@H]2C(N3C(=O)[C@@H](c4ccccc4)NC3(C)C)C(=O)N2[C@H]1C(=O)O (some centres undefined)	1.01 (inactive)

query: Using the record for CC1=CC(=O)C2C(C)(C)CCC[C@]2(C)[C@@]1(O)CCc1ccoc1 (some centres undefined) , report its normalized growth.
result: 1 (inactive)

query: Need normalized growth, item COC1C(O)C(O[C@H]2CC[C@]3(C=O)C4C(CC[C@]3(O)C2)[C@@]2(O)CC[C@H](C3=CC(=O)OC3)[C@@]2(C)C[C@H]4OC(C)=O)OC(C)C1OC(C)=O (some centres undefined)
result: 1.02 (inactive)

query: Recorded normalized growth for NCC(O)CC(=O)O (centres undefined) , please?
result: 1.01 (inactive)

query: Give the measured normalized growth of CC(=O)Oc1ccccc1C(=O)Oc1ccccc1C(=O)O .
result: 1.01 (inactive)

query: # get_value(readout='normalized growth', item= C[C@H]1O[C@@H](O[C@H]2[C@@H](O)C[C@H](O[C@H]3[C@@H](O)C[C@H](O[C@H]4CC[C@]5(C)C6CC[C@]7(C)[C@@H](C8=CC(=O)OC8)CC[C@]7(O)C6CC[C@@H]5C4)O[C@@H]3C)O[C@@H]2C)C[C@H](O)[C@@H]1O (some centres undefined) )
result: 0.981 (inactive)

query: # normalized growth lookup, item Cc1c(OCC(F)(F)F)ccnc1CS(=O)c1nc2ccccc2[nH]1 (centres undefined)
result: 0.958 (inactive)

query: Which normalized growth value is on record for C/C=C(/C)C(=O)O[C@@H]1Cc2c(ccc3ccc(=O)oc23)OC1(C)C ?
result: 0.951 (inactive)

query: Using the record for CC(C)Nc1nc(Cl)nc(NC(C)C)n1 , report its normalized growth.
result: 0.999 (inactive)

query: Need normalized growth of NC(N)=Nc1ccc(Cl)cc1 , thanks.
result: 1.01 (inactive)

query: Give the measured normalized growth of COc1cc(C)c2c(=O)c3c(O)cc(OC)cc3oc2c1 .
result: 1.01 (inactive)

query: Please look up its normalized growth: COP(N)(=O)SC (centres undefined)
result: 0.99 (inactive)

query: Entry under review: C[C@]12CC[C@H](O)C[C@H]1CCC1C2CC[C@]2(C)[C@@H](C3=CC(=O)OC3)[C@@H](O)C[C@]12O (some centres undefined) . Reported normalized growth?
result: 1.01 (inactive)

query: Given the molecule CC[C@@]1(O)C(=O)OCc2c1cc1n(c2=O)Cc2cc3ccccc3nc2-1 , what is its reported normalized growth?
result: 0.781 (active)

query: Requested field: normalized growth. Item: NCCCCN
result: 1 (inactive)

query: Tell me the measured normalized growth of CC12CCC3C(CCC4(O)CC(O)CCC34/C=N/NC(N)=O)C1(O)CCC2C1=CC(=O)OC1 (centres undefined) , please.
result: 0.986 (inactive)

query: Query: normalized growth; subject: CSc1nc(NC(C)C)nc(NC(C)C)n1
result: 0.999 (inactive)

query: Which normalized growth value is on record for CC(C)(C)NCC(O)COc1cccc2c1C[C@H](O)[C@H](O)C2 (some centres undefined) ?
result: 1.02 (inactive)

query: Any idea what normalized growth was measured for NC(=O)c1cc([N+](=O)[O-])cc([N+](=O)[O-])c1 ?
result: 0.999 (inactive)

query: Item under review: CC(=O)O[C@@H]1c2c(ccc3ccc(=O)oc23)OC(C)(C)[C@@H]1OC(=O)CC(C)C . Reported normalized growth?
result: 0.998 (inactive)

query: # lookup: normalized growth of COC(=O)CC1C(C)(C)C(OC(C)=O)[C@@H]2[C@@H](OC(C)=O)[C@]34O[C@@]2(O)[C@]1(C)C3CC[C@]1(C)C4=CC(=O)O[C@H]1c1ccoc1 (some centres undefined)
result: 1.05 (inactive)

query: What measured normalized growth goes with CC(=O)N1CCCC1C(=O)O (centres undefined) ?
result: 1 (inactive)

query: Request the reported normalized growth associated with COc1cc(C)c2c(=O)c3c(O)cc(O)cc3oc2c1
result: 0.992 (inactive)

query: I'd like to know its normalized growth. The molecule in question is C[C@@H]1CCC2[C@](C)(CO)[C@@H](O)CC[C@]2(C)[C@@]12CC[C@@](CO)(CCO)O2 (some centres undefined)
result: 1.03 (inactive)

query: What measured normalized growth goes with O=C(Oc1ccccc1C(=O)O)c1ccccc1O ?
result: 0.98 (inactive)
